All figures here come from ChEMBL document CHEMBL1961873.

Test system: Mast/stem cell growth factor receptor Kit (Homo sapiens), P10721 [V560G]
Sequence (P10721 whole entry V560G): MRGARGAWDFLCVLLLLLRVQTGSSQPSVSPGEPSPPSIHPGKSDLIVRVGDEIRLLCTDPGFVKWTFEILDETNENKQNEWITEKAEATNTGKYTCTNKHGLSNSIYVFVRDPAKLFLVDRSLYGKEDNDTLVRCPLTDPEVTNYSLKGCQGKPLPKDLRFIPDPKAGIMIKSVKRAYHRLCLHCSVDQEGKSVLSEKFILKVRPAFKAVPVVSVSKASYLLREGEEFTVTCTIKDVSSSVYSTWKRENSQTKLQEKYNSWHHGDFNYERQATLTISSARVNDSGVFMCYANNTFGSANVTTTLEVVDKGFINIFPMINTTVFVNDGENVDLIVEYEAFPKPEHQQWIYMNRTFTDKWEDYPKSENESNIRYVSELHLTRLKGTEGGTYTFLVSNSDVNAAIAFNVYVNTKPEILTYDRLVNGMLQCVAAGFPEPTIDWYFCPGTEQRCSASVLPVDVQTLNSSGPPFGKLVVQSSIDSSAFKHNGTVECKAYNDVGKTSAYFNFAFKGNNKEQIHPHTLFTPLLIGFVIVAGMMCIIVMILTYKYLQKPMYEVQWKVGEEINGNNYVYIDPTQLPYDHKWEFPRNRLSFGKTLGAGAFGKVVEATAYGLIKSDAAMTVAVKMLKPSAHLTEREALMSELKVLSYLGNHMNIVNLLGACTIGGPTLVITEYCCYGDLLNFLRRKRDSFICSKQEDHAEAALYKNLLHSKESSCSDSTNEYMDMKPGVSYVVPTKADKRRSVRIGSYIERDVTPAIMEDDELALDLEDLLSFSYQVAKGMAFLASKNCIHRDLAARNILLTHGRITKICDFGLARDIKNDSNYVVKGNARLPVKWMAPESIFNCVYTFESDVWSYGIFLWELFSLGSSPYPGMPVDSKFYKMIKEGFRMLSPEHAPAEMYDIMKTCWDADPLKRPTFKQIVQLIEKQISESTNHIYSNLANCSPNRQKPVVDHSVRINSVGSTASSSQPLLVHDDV
condition.set: at 1 µM
property.label: inhibition (%)
Give the value in % but do not write % after it.

A selection of reference data follows.
{"compound": "CN1CCC(n2cnc(-c3ccc(F)cc3)c2-c2ccnc(NCCO)n2)CC1", "measured.on": "Mast/stem cell growth factor receptor Kit (Homo sapiens), P10721 [V560G]", "meas.value": -0.38}
{"compound": "FC(F)(F)CNc1nccc(-c2cnn3ncccc23)n1", "measured.on": "Mast/stem cell growth factor receptor Kit (Homo sapiens), P10721 [V560G]", "meas.value": 0.4}
{"compound": "CC1=C(C(=O)Nc2ccc3[nH]ncc3c2)C(c2ccc(F)cc2)N=C(c2ccc(C(F)(F)F)nc2)N1 (stereo not given)", "measured.on": "Mast/stem cell growth factor receptor Kit (Homo sapiens), P10721 [V560G]", "meas.value": 3.28}
{"compound": "CCn1c(-c2nonc2N)nc2cncc(C(=O)NCCNC)c21", "measured.on": "Mast/stem cell growth factor receptor Kit (Homo sapiens), P10721 [V560G]", "meas.value": 0.98}
{"compound": "Cc1cc(O)cc(C)c1/C=C/c1cncc(C(N)=O)c1", "measured.on": "Mast/stem cell growth factor receptor Kit (Homo sapiens), P10721 [V560G]", "meas.value": 22.9}

INPUT: Quick check: inhibition of COc1ccc(-c2nn3ncccc3c2-c2ccnc(Nc3ccc(F)c(F)c3)n2)cc1 ?
OUTPUT: 4.13

INPUT: Would you kindly share the measured inhibition for COc1ccc(Nc2ncc(-c3ccccc3)o2)cc1OC ?
OUTPUT: 84.8

INPUT: I have this compound here, COc1cc2c(cc1Nc1nc(Nc3cccc(F)c3C(N)=O)c3cc[nH]c3n1)N(C(=O)CN1CCN(C(C)C)CC1)CC2 , and I need its recorded inhibition.
OUTPUT: -2.31

INPUT: Entry O=C(O[C@H]1CN[C@H](C#Cc2cc3ncnc(Nc4ccc5c(ccn5Cc5cc(F)ccc5F)c4)c3s2)C1)N1CCOCC1 has what inhibition?
OUTPUT: -2.32

INPUT: What value of inhibition has been reported for the following compound? CS(=O)(=O)Nc1ccc(-c2ccc3c(NC(=O)C4CC4)n[nH]c3c2)cc1
OUTPUT: 0.94
